Assay Comment: Inhibition of cyclin-dependent kinase 1 activity
Measurement Name: pIC50
Just the number, please; pIC50 means minus log10 of the concentration in mol/L.

Would you please look over these solved cases?
>  <Smiles Text>
CN(C)CCNC(=O)c1cncc(-c2cncc(Nc3cccc(Cl)c3)n2)c1

>  <pIC50>
5.43

$$$$
>  <Smiles Text>
Clc1cccc(Nc2cncc(-c3cncc(NCCCN4CCCCC4)c3)n2)c1

>  <pIC50>
5.27

$$$$
>  <Smiles Text>
O=C(O)CCCNc1cncc(-c2cncc(Nc3cccc(Cl)c3)n2)c1

>  <pIC50>
5.28

$$$$

Then there is this molecule:
Request: Please report the measured pIC50 for Clc1cccc(Nc2cncc(-c3cncc(NCCCCc4ccncc4)c3)n2)c1
Result: 5.00
